target: monkey GPC3-His protein (monkey); test: ELISA, monkey GPC3-His coated; antibody 0.11 nM
Parameter: OD450 nm
Write the number on its own, no unit after it.

hAb003LH1L1 (antibody, human IgG1, V domains shown) VH: EVQLVQSGAEVKKPGSSVKVSCKASGYTFSDYEMHWVRQAPGQGLEWMGTIDPETGNTAYTQKFMDRVTITADKSTSTAYMELSSLRSEDTAVYYCTRGYSFTYWGQGTLVTVSS VL: DIVMTQTPLSLPVTPGEPASISCRSSQNIVHSNGNTYLQWYLQKPGQSPQLLIFKVSNRFSGVPDRFSGSGSGTDFTLKISRVEAEDVGVYYCFQGSHVPFTFGQGTKLEIK	2.31

IN: Give OD450 nm for hAb005LH1L1a (antibody, human IgG1, V domains shown) VH: EVQLVQSGAEVKKPGASVKVSCKASGYTFTDYEMHWVRQAPGQGLEWMGAIDPETGNTAYIQKFKGRVTMTTDKSTSTAYMELRSLRSDDTAVYYCTRFYSYSHWGQGTTVTVSS VL: DIVMTQTPLSLPVTPGEPASISCRSSQSLVHSDGNTYLHWYLQKPGQSPQLLIYKVSNRFSGVPDRFSGSGSGTDFTLKISRVEAEDVGVYYCSQNTHVPPTFGGGTKVEIK
OUT: 0.066

IN: Give OD450 nm for hAb006LH3L1a (antibody, human IgG1, V domains shown) VH: EVQLVQSGAEVKKPGSSVKVSCKASGYTFTDYEIHWVRQAPGQGLEWMGAIDPKTGNTAYNQKFMGRVTLTADKSTSTAYMELSSLRSEDTAVYYCTRYFSFAYWGQGTLVTVSS VL: DIVMTQTPLSLPVTPGEPASISCRSSQTFVHSDGNTYLQWYLQKPGQSPQLLIYKVSNRFSGVPDRFSGSGSGTDFTLKISRVEAEDVGVYYCFQGSHVPYTFGQGTKLEIK
OUT: 0.226

IN: Give OD450 nm for hAb007LH1L1b (antibody, human IgG1, V domains shown) VH: EVQLVQSGAEVKKPGSSVKVSCKASGYTFSDYEMHWVRQAPGQGLEWMGTIDPETGNTAYNQKFKGRVTITADKSTSTAYMELSSLRSEDTAVYYCTRPYSLTYWGQGTLVTVSS VL: DIVMTQTPLSLPVTPGEPASISCRSSQSFVHSNRDTYLQWYLQKPGQSPQLLIYKVSNRFSGVPDRFSGSGSGTDFTLKISRVEAEDVGVYYCFQGSHVPYTFGQGTKLEIK
OUT: 0.958

IN: Give OD450 nm for hAb007LH3L1a (antibody, human IgG1, V domains shown) VH: EVQLVQSGAEVKKPGSSVKVSCKASGYTFTDYEMHWVRQAPGQGLEWMGTIDPETGNTAYNQKFKGRVTLTADKSTSTAYMELSSLRSEDTAVYYCTRPYSLTYWGQGTLVTVSS VL: DIVMTQTPLSLPVTPGEPASISCRSSQSFVHSDGDTYLQWYLQKPGQSPQLLIYKVSNRFSGVPDRFSGSGSGTDFTLKISRVEAEDVGVYYCFQGSHVPYTFGQGTKLEIK
OUT: 0.337

IN: Give OD450 nm for hAb007LH2L1 (antibody, human IgG1, V domains shown) VH: EVQLVQSGAEVKKPGSSVKVSCKASGYTFTDYEMHWVRQAPGQGLEWMGTIDPETGNTAYNQKFKGRVTITADKSTSTAYMELSSLRSEDTAVYYCTRPYSLTYWGQGTLVTVSS VL: DIVMTQTPLSLPVTPGEPASISCRSSQSFVHSNGDTYLQWYLQKPGQSPQLLIYKVSNRFSGVPDRFSGSGSGTDFTLKISRVEAEDVGVYYCFQGSHVPYTFGQGTKLEIK
OUT: 1.74

The reported numbers originate from patent US20260116991A1.
